- assay-target: human A3AR (Homo sapiens, UniProt P0DMS8)
- Construct: expressed in transfected cells
- Sequence (P0DMS8 1-318): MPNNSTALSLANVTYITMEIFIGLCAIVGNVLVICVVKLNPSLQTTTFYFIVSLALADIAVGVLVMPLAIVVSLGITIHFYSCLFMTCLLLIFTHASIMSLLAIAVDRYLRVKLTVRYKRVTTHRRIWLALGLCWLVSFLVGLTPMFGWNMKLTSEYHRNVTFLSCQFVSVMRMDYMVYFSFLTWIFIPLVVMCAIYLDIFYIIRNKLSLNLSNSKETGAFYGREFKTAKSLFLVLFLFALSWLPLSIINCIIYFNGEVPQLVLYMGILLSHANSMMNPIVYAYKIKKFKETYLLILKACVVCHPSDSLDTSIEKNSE
- test-description: LOPAC library primary screen: single concentration (10 μM) inhibition of 25 nM CA200645 binding, PHERAstar FS
Counter-ions that a name gives are not always drawn.
Label yes when % 25 nM CA200645 binding is at or above 90%; otherwise label no.

> print(dat)
                                   compound  assigned.label
1  CC[C@H](NC(=O)c1c(C)c(-c2ccccc2)nc2ccccc12)c1ccccc1              no
2  CNc1ccc2oc(C[C@H]3O[C@@]4(CC[C@H]3C)O[C@H]([C@H](C)C(=O)c3ccc[nH]3)[C@H](C)C[C@H]4C)nc2c1C(=O)O              no
3  O=C1Cc2c([nH]c3ccc(Br)cc23)-c2ccccc2N1 [kenpaullone, reference compound]              no
4  CN(C)CC[C@@H](c1ccc(Br)cc1)c1ccccn1 [(+)-Brompheniramine maleate]             yes
5  NCCc1c[nH]c2ccc(O)cc12 [Serotonin hydrochloride]             yes

----------
- assay-target: human A3AR (Homo sapiens)
- Construct: expressed in transfected cells
- test-description: LOPAC library primary screen: single concentration (10 μM) inhibition of 25 nM CA200645 binding, PHERAstar FS
Where a name gives a salt, the structure may show the parent alone.
reported-endpoint: % 25 nM CA200645 binding (%)

> print(dat)
                                   compound  observed.result
1  Cc1cccc(C(=O)NCN2CCN(c3ccccc3C#N)CC2)c1.O=C(O)/C=C\C(=O)O [PD 168,077 maleate]             92.4
2  CC(C)NCC(O)c1ccc(O)c(O)c1.Cl (racemic) [(±)-Isoproterenol hydrochloride]             95.3
3  OC[C@H]1OC(n2cnc3ccccc32)[C@H](O)[C@@H]1O (stereo partly drawn) [D-ribofuranosylbenzimidazole]             98.4
4  CNCCC(Oc1ccccc1OC)c1ccccc1 (centres unmarked) [Nisoxetine hydrochloride]             97.3
5          CC(N)c1cccc(Cl)c1Cl.Cl (racemic)            100.4

----------
- assay-target: human A3AR (Homo sapiens, UniProt P0DMS8)
- Construct: expressed in transfected cells
- test-description: LOPAC library primary screen: single concentration (10 μM) inhibition of 25 nM CA200645 binding, PHERAstar FS
Structures can show the parent of a compound that is named as a salt.
reported-endpoint: % 25 nM CA200645 binding (%)

molecule	assay-target	reported-endpoint	unit-name	observed-result
N[C@@H](Cc1ccc(O)c(O)c1)C(=O)O [L-3,4-Dihydroxyphenylalanine]	human A3AR (Homo sapiens, UniProt P0DMS8)	% 25 nM CA200645 binding	%	99.1
N[C@@H]1C[C@H]1c1ccccc1 [Tranylcypromine hydrochloride]	human A3AR (Homo sapiens, UniProt P0DMS8)	% 25 nM CA200645 binding	%	100.1
Cn1cnc2c1c(=O)[nH]c(=O)n2C [Theobromine]	human A3AR (Homo sapiens, UniProt P0DMS8)	% 25 nM CA200645 binding	%	101.7
Clc1ccc(C(c2ccc(Cl)cc2)n2cc[n+](CC(OCc3ccc(Cl)cc3Cl)c3ccc(Cl)cc3Cl)c2)cc1 (centres unmarked) [Calmidazolium chloride]	human A3AR (Homo sapiens, UniProt P0DMS8)	% 25 nM CA200645 binding	%	54.4
CN(CCCOc1ccc(Cc2ccccc2)cc1)CCC(=O)O.Cl [SC-57461A]	human A3AR (Homo sapiens, UniProt P0DMS8)	% 25 nM CA200645 binding	%	83.2
Nc1nc(Cl)nc2c1ncn2[C@@H]1O[C@H](CO)[C@@H](O)[C@H]1O [2-Chloroadenosine]	human A3AR (Homo sapiens, UniProt P0DMS8)	% 25 nM CA200645 binding	%	51.0
O=C(O)/C=C/C(=O)O.O=C(O)/C=C/C(=O)O.O=C(O)/C=C/C(=O)O.O=C1CCCN1CC#CCN1CCCC1.O=C1CCCN1CC#CCN1CCCC1 [Oxotremorine sesquifumarate salt]	human A3AR (Homo sapiens, UniProt P0DMS8)	% 25 nM CA200645 binding	%	101.9
O=C(O)C1CN(CCCP(=O)(O)O)CCN1 (racemic) [(±)-CPP]	human A3AR (Homo sapiens, UniProt P0DMS8)	% 25 nM CA200645 binding	%	97.2
CCCCCCN(CCCCCC)C(=O)Cc1c(-c2ccc(F)cc2)[nH]c2ccccc12	human A3AR (Homo sapiens, UniProt P0DMS8)	% 25 nM CA200645 binding	%	88.5
N#Cc1cc([N+](=O)[O-])c2sc(C(N)=O)[n+]([O-])c2c1 [BTO-1]	human A3AR (Homo sapiens, UniProt P0DMS8)	% 25 nM CA200645 binding	%	99.9
O=c1c2ccccc2[nH]c(=S)n1CCN1CCC(=C(c2ccc(F)cc2)c2ccc(F)cc2)CC1 [Diacylglycerol Kinase Inhibitor II]	human A3AR (Homo sapiens, UniProt P0DMS8)	% 25 nM CA200645 binding	%	51.5
CC(C)(C)NCC(O)c1ccc(O)c(CO)c1.CC(C)(C)NCC(O)c1ccc(O)c(CO)c1.O=S(=O)(O)O (centres unmarked) [Albuterol hemisulfate]	human A3AR (Homo sapiens, UniProt P0DMS8)	% 25 nM CA200645 binding	%	97.4
C[C@]12C=CC(=O)C=C1CC[C@@H]1C2=CC[C@]2(C)[C@@H](C(=O)CN3CCN(c4cc(N5CCCC5)nc(N5CCCC5)n4)CC3)CC[C@@H]12.O=C(O)/C=C\C(=O)O [U-74389G maleate]	human A3AR (Homo sapiens, UniProt P0DMS8)	% 25 nM CA200645 binding	%	36.9
NN=C(N)N.NN=C(N)N.O=S(=O)(O)O [Aminoguanidine hemisulfate]	human A3AR (Homo sapiens, UniProt P0DMS8)	% 25 nM CA200645 binding	%	99.2
CC(C)NCC(O)c1cc(O)cc(O)c1.CC(C)NCC(O)c1cc(O)cc(O)c1.O=S(=O)(O)O (centres unmarked) [Metaproterenol hemisulfate]	human A3AR (Homo sapiens, UniProt P0DMS8)	% 25 nM CA200645 binding	%	102.0
C[C@H](O)C(=O)C1=Nc2c(nc(N)[nH]c2=O)NC1 [Sepiapterin]	human A3AR (Homo sapiens, UniProt P0DMS8)	% 25 nM CA200645 binding	%	97.4
CC(C)(C)NCC(O)COc1cccc2[nH]c(=O)[nH]c12.Cl (racemic) [(±)-CGP-12177A hydrochloride]	human A3AR (Homo sapiens, UniProt P0DMS8)	% 25 nM CA200645 binding	%	114.1
NC[C@H](O)c1ccc(O)c(O)c1.O=C(O)C(O)C(O)C(=O)O (racemic) [(±)-Norepinephrine (+)bitartrate]	human A3AR (Homo sapiens, UniProt P0DMS8)	% 25 nM CA200645 binding	%	87.1
Cl.OCc1c[nH]cn1 [4-Imidazolemethanol hydrochloride]	human A3AR (Homo sapiens, UniProt P0DMS8)	% 25 nM CA200645 binding	%	101.5
Cl.O=C(Cc1ccc(Cl)c(Cl)c1)N1CCCCC1CN1CCCC1 (centres unmarked) [BRL 52537 hydrochloride]	human A3AR (Homo sapiens, UniProt P0DMS8)	% 25 nM CA200645 binding	%	112.4
C=C(C)[C@H]1Cc2c(ccc3c2O[C@@H]2COc4cc(OC)c(OC)cc4[C@@H]2C3=O)O1 [Rotenone]	human A3AR (Homo sapiens, UniProt P0DMS8)	% 25 nM CA200645 binding	%	92.4
CC(=O)NCCc1c[nH]c2ccccc12 [N-Acetyltryptamine]	human A3AR (Homo sapiens, UniProt P0DMS8)	% 25 nM CA200645 binding	%	99.0
Cc1ccc(S(=O)(=O)N[C@@H](Cc2ccccc2)C(=O)CCl)cc1	human A3AR (Homo sapiens, UniProt P0DMS8)	% 25 nM CA200645 binding	%	102.0
C[C@H](Cc1ccc2c(c1)OC(C(=O)[O-])(C(=O)[O-])O2)NC[C@H](O)c1cccc(Cl)c1.[Na+].[Na+] [CL 316,243]	human A3AR (Homo sapiens, UniProt P0DMS8)	% 25 nM CA200645 binding	%	38.7
COc1cc(/C=C(\C#N)C(=O)Nc2nnc(C(F)(F)F)s2)ccc1OCc1ccc(C(F)(F)F)cc1C(F)(F)F [XCT790]	human A3AR (Homo sapiens, UniProt P0DMS8)	% 25 nM CA200645 binding	%	87.7
CC(N)C(=O)OC(C)(C)Cc1ccc(Cl)cc1 (centres unmarked) [Alaproclate hydrochloride]	human A3AR (Homo sapiens, UniProt P0DMS8)	% 25 nM CA200645 binding	%	104.8
